B1: library; numbered along this chain (parent)
chain: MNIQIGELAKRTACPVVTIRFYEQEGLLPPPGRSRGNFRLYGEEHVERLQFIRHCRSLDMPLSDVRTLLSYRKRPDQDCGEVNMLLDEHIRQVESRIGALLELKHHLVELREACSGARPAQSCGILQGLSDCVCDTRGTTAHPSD

variants of: B1; assay: sfGFP reporter fluorescence (15 h) (µM FITC); higher = stronger transcriptional activation; conditions: library round: Round 1; ligand: 30 µM Zn
Mark condition met for reported sfGFP reporter fluorescence of 0.2 or greater; mark condition not met for anything smaller.

{"mutation.spec": "I97A K104V", "label.class": "condition met"}
{"mutation.spec": "D64T G128I D135A", "label.class": "condition met"}

Query block: Could you tell me if the measured sfGFP reporter fluorescence of G128I D131C reaches 0.2 or more?
Result block: condition met

Query block: Lookup P61N E94C
Result block: condition met

Query block: Also D87E D131C , if possible.
Result block: condition not met
